- System: HIV-1 Ba-L
- Assay protocol: Antiviral activity of additional compounds (Tables 6 and 7)
- Type: cell-based
Measurement kind: Antiviral index (TC50/IC50)

Example compounds with recorded Antiviral index (TC50/IC50):
[
  {
    "Mol smiles": "O=C(CNC(=O)COc1ccc(C(F)(F)F)cc1)NCc1ccc(C(=O)N2CCCCC2)cc1",
    "Antiviral index (TC50/IC50)": "> 4.86"
  },
  {
    "Mol smiles": "O=C(CNC(=O)COc1ccc(Cl)cc1)NCc1ccc(C(=O)N2CCCCC2)cc1",
    "Antiviral index (TC50/IC50)": "> 1.38"
  },
  {
    "Mol smiles": "O=C(CNC(=O)COc1ccccc1)NCc1ccc(C(=O)N2CCCCC2)cc1",
    "Antiviral index (TC50/IC50)": "> 3.13"
  }
]

Below: the item to evaluate.
Endpoint output: Antiviral index (TC50/IC50) of `COc1ccc(OCC(=O)NCC(=O)NCc2ccc(C(=O)N3CCCCC3)cc2)cc1` . Value?
1.44

====

- Assay protocol: Compound cytotoxicity in PBMCs (MTS)
- Format: cell-based, human
- Test settings: human; Table 4 study, PBMCs; read-out: TC50
- Description: HIV human peripheral blood mononuclear cell (PBMC) assays were performed as described previously (Lanier et al., 2010, Antimicrob Agents Chemother 54:2901-2909 and Ptak et al., 2008, Antimicrob Agents Chemother 52:1302-1317). […] Following removal of supernatant samples, compound cytotoxicity was measured by the addition of 3-(4,5-dimethylthiazol-2-yl)-5-(3-carboxymethoxy-phenyl)-2-(4-sulfophenyl)-2H-tetrazolium (MTS; CellTiter 96 reagent; Promega) by following the manufacturer's instructions.
Measurement kind: CC50 at 7 days

Example compounds with recorded CC50 at 7 days:
[
  {
    "Compound": "COc1ccccc1-c1noc(=O)n1-c1cccc(C(F)(F)F)c1 [ITI-367, reference compound]",
    "CC50 at 7 days": "> 100 µM"
  },
  {
    "Compound": "O=C(CNC(=O)COc1ccccc1)NCc1ccc(C(=O)N2CCCCC2)cc1",
    "CC50 at 7 days": "> 100 µM"
  },
  {
    "Compound": "CCOc1ccc(NC(=O)Cc2cn3ccsc3n2)cc1S(=O)(=O)N1CCCCC1",
    "CC50 at 7 days": "92.3 µM"
  }
]

Below: the item to evaluate.
Endpoint output: CC50 at 7 days of `Cc1ccc(NC(=O)CN2CCN(Cc3nc(-c4ccc(F)cc4)no3)CC2)cc1` . Value?
> 100 µM

====

- Tested on: SIV MAC251
- Assay protocol: Antiviral efficacy in PBMCs, reverse transcriptase activity
- Format: cell-based
Measurement kind: Antiviral index (TC50/IC50)

[
  {
    "Compound": "O=C(CNC(=O)COc1ccccc1)NCc1ccc(C(=O)N2CCCCC2)cc1",
    "Study system": "SIV MAC251",
    "Measurement kind": "Antiviral index (TC50/IC50)",
    "Result": "> 5.85"
  }
]

For the 3 compounds below, give their Antiviral index (TC50/IC50) values.
1. Cc1ccc(NC(=O)CN2CCN(Cc3nc(-c4ccc(F)cc4)no3)CC2)cc1
2. CCOc1ccc(NC(=O)Cc2cn3ccsc3n2)cc1S(=O)(=O)N1CCCCC1
3. COc1ccccc1-c1noc(=O)n1-c1cccc(C(F)(F)F)c1 [ITI-367, reference compound]

1: > 10.55; 2: 1.06; 3: >1.33
